Test: Orthogonal mCherry assay for qRT-PCR qHTS of selected Zika virus inhibitors
Conditions: Vero cells, ZIKV-mCherry infection imaging, 48-72 h; series mostly up to 32.6 µM
From the text: Description: Assay Submitters (PI): Avindra Nath, Ph.D., National Institute of Neurological Disorders and Stroke (NINDS), Bethesda, MD Radhakrishnan Padmanabhan, Ph.D., Georgetown University (GU), Washington D.C. […] 384 well ZIKV-mCherry Assay: We have developed a new orthogonal imaging assay in 384-well plate format, which uses recombinant virus ZIKV-mCherry in Vero cells. […] The TIFFs were quantitated using the canned Multi Target Analysis protocol (GE Investigator Workstation software v3.7.2). […]
Records with an inconclusive call do not appear. Calls of active or inactive are those of the source. Calls follow the shape of the dose curve; as a rule, active = well fitted inhibition curve with a large enough effect; inconclusive = small, poorly fitted or top-dose-only effect; inactive = no such curve, though single readings can be large or run the other way.
Choose the fitting class; nothing outside 1 (active), -1 (inactive) is accepted.

What did the test return for Cc1cc(C(C#N)c2ccc(Cl)cc2)c(Cl)cc1NC(=O)c1cc(I)cc(I)c1O (stereo not drawn) ? -1

Per the records of this test, what outcome belongs to Nc1ccn([C@@H]2O[C@H](CO)[C@@H](O)C2(F)F)c(=O)n1 ? -1

Tell me the assay call for Oc1cccc(-c2c3nc(c(-c4cccc(O)c4)c4ccc([nH]4)c(-c4cccc(O)c4)c4nc(c(-c5cccc(O)c5)c5ccc2[nH]5)CC4)C=C3)c1 please. 1

Query: recorded result category for COc1cccc(-n2nc(C(=O)O)cc2-c2ccc(C3CCCCC3)c(Cl)c2)c1 in this test 1

Dear colleague, could you share the recorded outcome for Cc1cc2c(C(C)C)c(O)c(O)c(C=O)c2c(O)c1-c1c(C)cc2c(C(C)C)c(O)c(O)c(C=O)c2c1O when you have a moment? -1

Name the outcome recorded for CN(Cc1ccc(C(=O)O)cc1)c1ccc(OCc2c(-c3c(Cl)cccc3Cl)noc2C2CC2)nc1C(F)(F)F in the assay. 1

Recorded call for COc1cc2c(c(O)c1OC/C=C(\C)CC/C=C(/C)CCC=C(C)C)CN(C(CCC(=O)O)C(=O)O)C2=O (stereo not drawn) ? -1

Which outcome was assigned to CC1(C)CCC(CN2CCN(c3ccc(C(=O)NS(=O)(=O)c4ccc(NCC5CCOCC5)c([N+](=O)[O-])c4)c(Oc4cnc5[nH]ccc5c4)c3)CC2)=C(c2ccc(Cl)cc2)C1 in this test? -1

// param item: COc1ccc(NS(=O)(=O)c2ccc(NS(=O)(=O)c3ccc4c(c3)OCCO4)cc2)cc1 ; yields the recorded call -1

Hi, sorry to bother you, what did the test record for Cc1cc(NC(=O)c2ccc(Cl)c(Cl)c2)ccc1-c1cc2ccccc2oc1=O ? -1

Returns: the outcome recorded for O=C(Nc1ccc([N+](=O)[O-])cc1Cl)c1cc(Cl)ccc1O in this assay. -1

Hi, do you know how Nc1ncnc2c([C@@H]3N[C@H](CO)[C@@H](O)[C@H]3O)c[nH]c12 came out in this test? 1

Give the logged outcome of this assay for the following molecule: Cc1cccc(C)c1NS(=O)(=O)c1ccc(NS(=O)(=O)c2ccc3c(c2)OCCO3)cc1 1

Tell me the assay call for CC1=C(C(=O)OCc2ccccc2)C(c2ccc(-c3ccccc3)cc2)NC(=O)N1CCCCCC(=O)O (stereo not drawn) please. -1

Assay outcome for CC[C@H](C)[C@H]1O[C@]2(CC[C@@H]1C)C[C@@H]1C[C@@H](C/C=C(\C)[C@@H](O[C@H]3C[C@H](OC)[C@@H](O[C@H]4C[C@H](OC)[C@@H](O)[C@H](C)O4)[C@H](C)O3)[C@@H](C)/C=C/C=C3\CO[C@@H]4[C@H](O)C(C)=C[C@@H](C(=O)O1)[C@]34O)O2 : what was it? -1

How was CC(C)c1cc(C(C)C)c(CC(=O)NS(=O)(=O)Oc2c(C(C)C)cccc2C(C)C)c(C(C)C)c1 classified in this test? -1

// param item: CC(C)c1ccc2c(c1)c(SC(C)(C)C)c(CC(C)(C)C(=O)O)n2Cc1ccc(Cl)cc1 ; yields the recorded call -1

Outcome? COc1c(C)c2c(c(O)c1C/C=C(\C)CCC(=O)O)C(=O)OC2 -1
